Where do these numbers come from? They come from ChEMBL document CHEMBL3588850.

measured_on: Nucleic Acid
method_description: Binding affinity to HIV1 TAR RNA bulgeless tetraloop mutant at pH 6.8 by ethidium bromide displacement assay
Format: nucleic-acid assay, Human immunodeficiency virus 1
Measured IC50 by item
Form entry: enter the amount, then its unit.

A selection of reference data follows.
INSERT INTO assay_data (molecule, measure_name, readout_value) VALUES
  ('NC[C@@H]1O[C@H](O[C@H]2[C@@H](O)[C@H](O[C@@H]3[C@@H](O)[C@H](N)C[C@H](N)[C@H]3O[C@H]3O[C@H](CN)[C@@H](O)[C@H](O)[C@H]3N)O[C@@H]2CO)[C@H](N)[C@@H](O)[C@@H]1O', 'IC50', '192 nM'),
  ('NC[C@@H]1O[C@H](O[C@H]2[C@@H](O)[C@H](O[C@@H]3[C@@H](O)[C@H](N)C[C@H](N)[C@H]3O[C@H]3O[C@H](CN)[C@@H](O)[C@H](O)[C@H]3N)O[C@@H]2Cn2cc(-c3cccc(-c4cn(C[C@H]5O[C@@H](O[C@@H]6[C@@H](O)[C@H](N)C[C@H](N)[C@H]6O[C@H]6O[C@H](CN)[C@@H](O)[C@H](O)[C@H]6N)[C@H](O)[C@@H]5O[C@H]5O[C@@H](CN)[C@@H](O)[C@H](O)[C@H]5N)nn4)c3)nn2)[C@H](N)[C@@H](O)[C@@H]1O', 'IC50', '142 nM');

# next compound below
Q: // lookup IC50 for "NC[C@@H]1O[C@H](O[C@H]2[C@@H](O)[C@H](O[C@@H]3[C@@H](O)[C@H](N)C[C@H](N)[C@H]3O[C@H]3O[C@H](CN)[C@@H](O)[C@H](O)[C@H]3N)O[C@@H]2Cn2cc(COCCCCCCCCOCc3cn(C[C@H]4O[C@@H](O[C@@H]5[C@@H](O)[C@H](N)C[C@H](N)[C@H]5O[C@H]5O[C@H](CN)[C@@H](O)[C@H](O)[C@H]5N)[C@H](O)[C@@H]4O[C@H]4O[C@@H](CN)[C@@H](O)[C@H](O)[C@H]4N)nn3)nn2)[C@H](N)[C@@H](O)[C@@H]1O"
Ans: 106 nM

---

measured_on: Nucleic Acid
method_description: Binding affinity to HIV1 TAR RNA U3 bulge mutant at pH 6.8 by ethidium bromide displacement assay
Assay type: nucleic-acid assay, Human immunodeficiency virus 1
measure_name: IC50 (nM)
Answer in nM, number only, no unit symbol.

Q: Provide value of IC50 for this record tested with Nucleic Acid: "C/C(CCc1cn(C[C@H]2O[C@@H](O[C@@H]3[C@@H](O)[C@H](N)C[C@H](N)[C@H]3O[C@H]3O[C@H](CN)[C@@H](O)[C@H](O)[C@H]3N)[C@H](O)[C@@H]2O[C@H]2O[C@@H](CN)[C@@H](O)[C@H](O)[C@H]2N)nn1)=C(/C)CCc1cn(C[C@H]2O[C@@H](O[C@@H]3[C@@H](O)[C@H](N)C[C@H](N)[C@H]3O[C@H]3O[C@H](CN)[C@@H](O)[C@H](O)[C@H]3N)[C@H](O)[C@@H]2O[C@H]2O[C@@H](CN)[C@@H](O)[C@H](O)[C@H]2N)nn1"
Ans: 338

---

# pIC50 values compiled below
measured_on: Nucleic Acid
method_description: Binding affinity to HIV1 TAR RNA tetraloop mutant at pH 6.8 by ethidium bromide displacement assay
Type: nucleic-acid assay, Human immunodeficiency virus 1
FYI, pIC50 means -log10 of a concentration in mol per litre.

INSERT INTO measurements (molecule, measured_on, measure_name, readout_value) VALUES
  ('NC[C@@H]1O[C@H](O[C@H]2[C@@H](O)[C@H](O[C@@H]3[C@@H](O)[C@H](N)C[C@H](N)[C@H]3O[C@H]3O[C@H](CN)[C@@H](O)[C@H](O)[C@H]3N)O[C@@H]2Cn2cc(COCc3cn(C[C@H]4O[C@@H](O[C@@H]5[C@@H](O)[C@H](N)C[C@H](N)[C@H]5O[C@H]5O[C@H](CN)[C@@H](O)[C@H](O)[C@H]5N)[C@H](O)[C@@H]4O[C@H]4O[C@@H](CN)[C@@H](O)[C@H](O)[C@H]4N)nn3)nn2)[C@H](N)[C@@H](O)[C@@H]1O', 'Nucleic Acid', 'pIC50', 6.81);

Q: Param item = "C/C(CCc1cn(C[C@H]2O[C@@H](O[C@@H]3[C@@H](O)[C@H](N)C[C@H](N)[C@H]3O[C@H]3O[C@H](CN)[C@@H](O)[C@H](O)[C@H]3N)[C@H](O)[C@@H]2O[C@H]2O[C@@H](CN)[C@@H](O)[C@H](O)[C@H]2N)nn1)=C(/C)CCc1cn(C[C@H]2O[C@@H](O[C@@H]3[C@@H](O)[C@H](N)C[C@H](N)[C@H]3O[C@H]3O[C@H](CN)[C@@H](O)[C@H](O)[C@H]3N)[C@H](O)[C@@H]2O[C@H]2O[C@@H](CN)[C@@H](O)[C@H](O)[C@H]2N)nn1" ; retrieve measured pIC50.
Ans: 6.68

Q: Which value of pIC50 has been reported for "NC[C@@H]1O[C@H](O[C@H]2[C@@H](O)[C@H](O[C@@H]3[C@@H](O)[C@H](N)C[C@H](N)[C@H]3O[C@H]3O[C@H](CN)[C@@H](O)[C@H](O)[C@H]3N)O[C@@H]2CO)[C@H](N)[C@@H](O)[C@@H]1O" in the records?
Ans: 6.16

---

Let's look at some compounds and their measured pIC50.
measured_on: Nucleic Acid
method_description: Binding affinity to HIV1 TAR RNA tetraloop mutant at pH 6.8 by ethidium bromide displacement assay
Assay type: nucleic-acid assay, Human immunodeficiency virus 1
Please note pIC50 is a logarithmic value: minus log10 of concentration in mol/L. Answer with that number alone.

INSERT INTO measurements (molecule, readout_value) VALUES
  ('NC[C@@H]1O[C@H](O[C@H]2[C@@H](O)[C@H](O[C@@H]3[C@@H](O)[C@H](N)C[C@H](N)[C@H]3O[C@H]3O[C@H](CN)[C@@H](O)[C@H](O)[C@H]3N)O[C@@H]2Cn2cc(CCCCc3cn(C[C@H]4O[C@@H](O[C@@H]5[C@@H](O)[C@H](N)C[C@H](N)[C@H]5O[C@H]5O[C@H](CN)[C@@H](O)[C@H](O)[C@H]5N)[C@H](O)[C@@H]4O[C@H]4O[C@@H](CN)[C@@H](O)[C@H](O)[C@H]4N)nn3)nn2)[C@H](N)[C@@H](O)[C@@H]1O', 6.56);

// below: pIC50 requested for another compound
Q: Entry under review: "NC[C@@H]1O[C@H](O[C@H]2[C@@H](O)[C@H](O[C@@H]3[C@@H](O)[C@H](N)C[C@H](N)[C@H]3O[C@H]3O[C@H](CN)[C@@H](O)[C@H](O)[C@H]3N)O[C@@H]2Cn2cc(CCCCCCc3cn(C[C@H]4O[C@@H](O[C@@H]5[C@@H](O)[C@H](N)C[C@H](N)[C@H]5O[C@H]5O[C@H](CN)[C@@H](O)[C@H](O)[C@H]5N)[C@H](O)[C@@H]4O[C@H]4O[C@@H](CN)[C@@H](O)[C@H](O)[C@H]4N)nn3)nn2)[C@H](N)[C@@H](O)[C@@H]1O" . Reported pIC50?
Ans: 6.67

---

Quick reference: K of the listed items.
Test system: Nucleic Acid
method_description: Binding affinity to HIV1 TAR RNA bulgeless mutant assessed as association constant at pH 6.8 by ethidium bromide displacement assay based Scatchard analysis method
Type: nucleic-acid assay
test_settings: Human immunodeficiency virus 1
Give just the numeric value; ×10⁷ /M need not be written.

Answered cases to consult:
INSERT INTO results (molecule, measured_on, readout_value) VALUES
  ('NC[C@@H]1O[C@H](O[C@H]2[C@@H](O)[C@H](O[C@@H]3[C@@H](O)[C@H](N)C[C@H](N)[C@H]3O[C@H]3O[C@H](CN)[C@@H](O)[C@H](O)[C@H]3N)O[C@@H]2Cn2cc(COCCCCCCCCCCCCOCc3cn(C[C@H]4O[C@@H](O[C@@H]5[C@@H](O)[C@H](N)C[C@H](N)[C@H]5O[C@H]5O[C@H](CN)[C@@H](O)[C@H](O)[C@H]5N)[C@H](O)[C@@H]4O[C@H]4O[C@@H](CN)[C@@H](O)[C@H](O)[C@H]4N)nn3)nn2)[C@H](N)[C@@H](O)[C@@H]1O', 'Nucleic Acid', 4.4),
  ('NC[C@@H]1O[C@H](O[C@H]2[C@@H](O)[C@H](O[C@@H]3[C@@H](O)[C@H](N)C[C@H](N)[C@H]3O[C@H]3O[C@H](CN)[C@@H](O)[C@H](O)[C@H]3N)O[C@@H]2CO)[C@H](N)[C@@H](O)[C@@H]1O', 'Nucleic Acid', 3);

Q: Endpoint output: K of "NC[C@@H]1O[C@H](O[C@H]2[C@@H](O)[C@H](O[C@@H]3[C@@H](O)[C@H](N)C[C@H](N)[C@H]3O[C@H]3O[C@H](CN)[C@@H](O)[C@H](O)[C@H]3N)O[C@@H]2Cn2cc(COCc3cn(C[C@H]4O[C@@H](O[C@@H]5[C@@H](O)[C@H](N)C[C@H](N)[C@H]5O[C@H]5O[C@H](CN)[C@@H](O)[C@H](O)[C@H]5N)[C@H](O)[C@@H]4O[C@H]4O[C@@H](CN)[C@@H](O)[C@H](O)[C@H]4N)nn3)nn2)[C@H](N)[C@@H](O)[C@@H]1O" . Value?
Ans: 7.5
